Test: protein stability index of a GFP-peptide fusion (yeast GPS) (PSI 1-4); higher = more stable; sorted into four equal gates, so the index is relative within each strain
Conditions: ubr1∆
quantity: protein stability index
In your answer, state the number alone without any accompanying words.

Q) protein stability index lookup needed for FSRRFDCRDVYCHEKEL [CSN9] , thanks.
A) 2.99

Q) protein stability index lookup needed for FRKVKLRVDEVQGKNLL [RPS1B] , thanks.
A) 3.28

Q) protein stability index lookup needed for SSFSLTFFPRCIIAVSC [POP1] , thanks.
A) 2.03

Q) protein stability index lookup needed for DLQRLKPLGLDRYGNRY [ITC1] , thanks.
A) 3.05

Q) protein stability index lookup needed for NGDNSTTTNTDQNNATM [SNF12] , thanks.
A) 1.99

Q) protein stability index lookup needed for GHIAKLMATEYQDIEGG [RPB2] , thanks.
A) 3.18

Q) protein stability index lookup needed for ITSINVENDTFIERNFT [FAS2] , thanks.
A) 3.19

Q) protein stability index lookup needed for RALRRALTKFEASQVTE [RPL35A] , thanks.
A) 3.19

Q) protein stability index lookup needed for ETLENNIVSVLTAGVNS [RPN11] , thanks.
A) 2.57

Q) protein stability index lookup needed for ILYSFKLSGKLLKEEKI [YML103C/NUP188] , thanks.
A) 2.49

Q) protein stability index lookup needed for FILLDRLRQFNLQPIST [SMC4] , thanks.
A) 1.32

Q) protein stability index lookup needed for PFTASQSNINTNAPLRT [YIL149C/MLP2] , thanks.
A) 2.08

Q) protein stability index lookup needed for NPHQKDQLIISSSANKL [YML103C/NUP188] , thanks.
A) 2.78

###

Test: protein stability index of a GFP-peptide fusion (yeast GPS) (PSI 1-4); higher = more stable; sorted into four equal gates, so the index is relative within each strain
Conditions: ubr1∆
quantity: protein stability index
In your answer, state the number alone without any accompanying words.

Q) protein stability index lookup needed for DELSSKELVECHLYSQR [NNF1] , thanks.
A) 2

Q) protein stability index lookup needed for QQQSSQNTVPNVLNQIN [GAL11] , thanks.
A) 2.01

Q) protein stability index lookup needed for YNTNFNLLLRELNVEKL [SRP72] , thanks.
A) 3.26

Q) protein stability index lookup needed for SAQQNLASSFVNGFLNL [RPN1] , thanks.
A) 2.75

Q) protein stability index lookup needed for SPDGRNFQVEYAVKAVE [PRE10] , thanks.
A) 2.37

Q) protein stability index lookup needed for TTNMNVNNCIWALKSSL [RGR1] , thanks.
A) 1.25

Q) protein stability index lookup needed for GCLHKGKLISNLSSTPM [YML031W/NDC1] , thanks.
A) 2.05

Q) protein stability index lookup needed for RRTNTPIGRDGKLAKPR [RPB2] , thanks.
A) 2.96

Q) protein stability index lookup needed for AILRQQQQMANNNGNPG [GAL11] , thanks.
A) 3.17

Q) protein stability index lookup needed for VLPDADVKLLHSQFMKD [YJL039C/NUP192] , thanks.
A) 2.27

Q) protein stability index lookup needed for RKCCNHPYLFEGAEPGP [ISW2] , thanks.
A) 3.2

Q) protein stability index lookup needed for KNIHISKRSKIDIINKL [YML103C/NUP188] , thanks.
A) 1.49

Q) protein stability index lookup needed for RSLATAVATPKAEVTQL [COR1] , thanks.
A) 2.89

Q) protein stability index lookup needed for QTENDLKDIEARIKEKA [RPT1] , thanks.
A) 3.37

Q) protein stability index lookup needed for SANERLFGNRPSMMAPL [YML031W/NDC1] , thanks.
A) 3.03

Q) protein stability index lookup needed for LSPSDQFAPAFLNTPNN [SSN2] , thanks.
A) 2.44

Q) protein stability index lookup needed for AQQKLKQNPGLMQNMMN [SRP54] , thanks.
A) 2.54

Q) protein stability index lookup needed for EDEGEELTDEYLAENPD [PRP8] , thanks.
A) 3.34

Q) protein stability index lookup needed for STRKTPNGEGSKTWETY [RPS20] , thanks.
A) 3.34

Q) protein stability index lookup needed for AVFIVPKILIREHERVI [SWP82] , thanks.
A) 2.1

Q) protein stability index lookup needed for ITVTAKQQPTMQANKLD [SWI3] , thanks.
A) 3.01

Q) protein stability index lookup needed for LKTVLHNGRDKIQFHIH [RGR1] , thanks.
A) 1.39

Q) protein stability index lookup needed for KKVSRRNARATRAAKIA [RPL13A] , thanks.
A) 2.77

Q) protein stability index lookup needed for TYIKSEITQQEKGLNEL [SMC4] , thanks.
A) 1.55
